assay: Solubility of the compound in phosphate buffer saline; format: physicochemical
ASSAY METRIC: solubility (µM)
Give just the numeric value; µM need not be written.

MOLECULAR STRING	solubility, µM
C[C@@H]1CN([C@H](C)CO)C(=O)c2cccc(NC(=O)c3ccncc3)c2O[C@H]1CN(C)Cc1ccc(Oc2ccccc2)cc1	1
C[C@@H]1CN([C@H](C)CO)C(=O)c2cccc(NC(=O)c3ccncc3)c2O[C@@H]1CN(C)Cc1ccc(Oc2ccccc2)cc1	86

// next entry
Could you share which solubility value was measured for C[C@H]1CN([C@@H](C)CO)C(=O)c2cccc(NC(=O)c3ccncc3)c2O[C@@H]1CN(C)Cc1ccc(Cl)c(Cl)c1 ? 64

* * *

experiment: Solubility of the compound in phosphate buffer saline; format: physicochemical
# Lookup of reported solubility keyed by entry
Write the number in µM without appending the unit.

MOLECULAR STRING	VALUE UNIT	OBS VALUE
C[C@H]1CN([C@@H](C)CO)C(=O)c2cccc(NC(=O)c3ccncc3)c2O[C@@H]1CN(C)Cc1ccncc1	µM	100
C[C@H](CO)N1C[C@H](C)[C@@H](CN(C)Cc2ccc(Oc3ccccc3)cc2)Oc2c(NC(=O)c3ccncc3)cccc2C1=O	µM	2
C[C@H]1CN([C@@H](C)CO)C(=O)c2cccc(NC(=O)c3ccncc3)c2O[C@@H]1CN(C)Cc1ccc(Oc2ccccc2)cc1	µM	1

Let's switch to this compound now.
Which solubility reading was recorded for the compound C[C@@H]1CN([C@@H](C)CO)C(=O)c2cccc(NC(=O)c3ccncc3)c2O[C@H]1CN(C)Cc1ccc(Oc2ccccc2)cc1 ? 1
